From: paper PMC8545574

The following molecules are shown together with reported IC50 values.
- Assayed target: PTP1B (Homo sapiens, UniProt P18031)
- Sequence (P18031 1-321 limits assumed): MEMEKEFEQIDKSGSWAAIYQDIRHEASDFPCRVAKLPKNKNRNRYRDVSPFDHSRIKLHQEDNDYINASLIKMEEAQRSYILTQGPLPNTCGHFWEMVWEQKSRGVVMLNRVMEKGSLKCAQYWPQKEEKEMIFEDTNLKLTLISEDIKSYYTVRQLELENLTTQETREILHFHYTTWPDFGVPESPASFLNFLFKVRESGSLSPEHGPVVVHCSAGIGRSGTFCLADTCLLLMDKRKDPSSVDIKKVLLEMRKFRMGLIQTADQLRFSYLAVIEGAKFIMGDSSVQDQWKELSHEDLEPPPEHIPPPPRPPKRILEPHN
- Experiment summary: PTP1B inhibitory assay (p-NPP substrate)

# Molecule, IC50
rows = [
    ("COc1cc(C2Oc3c(OC)cc(CCCO)cc3C2CO)ccc1OC(CO)CO (stereo not shown)", "> 100 µM"),
    ("COc1cc(-c2cc(=O)c3c(O)cc(O)cc3o2)cc(OC)c1O", "> 100 µM"),
    ("COc1cc([C@@H](O)[C@H](CO)Oc2c(OC)cc(CCCO)cc2OC)ccc1O[C@@H]1O[C@H](CO)[C@@H](O)[C@H](O)[C@H]1O", "> 100 µM"),
    ("C[C@@H]1O[C@@H](O[C@H]2C(=O)c3c(O)cc(O)cc3O[C@@H]2c2ccc(O)c(O)c2)[C@H](O)[C@H](O)[C@H]1O", "> 100 µM"),
    ("COc1cc(C2Oc3c(OC)cc(CCCO)cc3C2CO)ccc1O (stereo not shown)", "> 100 µM"),
    ("O=c1cc(-c2ccc(O)cc2)oc2c([C@@H]3O[C@H](CO)[C@@H](O)[C@H](O)[C@H]3O)c(O)cc(O)c12", "30.6 µM"),
    ("COc1cc([C@H](O)[C@H](CO)Oc2ccc(CCCO)cc2OC)ccc1O", "95.6 µM"),
    ("COc1cc([C@@H](O)[C@H](CO)Oc2ccc([C@@H]3OC[C@@H]4[C@H]3CO[C@H]4c3ccc(O)c(OC)c3)cc2OC)ccc1O", "81.9 µM"),
    ("COc1cc(C2Oc3c(OC)cc(CCCOC4OC(CO)C(O)C(O)C4O)cc3C2CO)ccc1O (stereo not shown)", "> 100 µM"),
    ("COc1cc(C2Oc3c(OC)cc(CCCO)cc3C2CO)cc(OC)c1O (stereo not shown)", "> 100 µM"),
    ("COc1cc(CCCO)ccc1O[C@@H](CO)[C@H](O)c1cc(OC)c(O)c(OC)c1", "67 µM"),
    ("COc1cc(C2Oc3c(OC)cc(CCCO)cc3C2CO)ccc1OC1OC(CO)C(O)C(O)C1O (stereo not shown)", "> 100 µM"),
    ("Oc1cc(O)c2c(c1)O[C@H](c1ccc(O)c(O)c1)[C@H](O)C2 [Compound 4, (-)-epicatechin]", "38.7 µM"),
]

* * *

Reported pIC50 values are given for each entry in this list.
- Experiment summary: DPPH free radical scavenging assay
- Assay type: biochemical
- Particulars: mean ± SD, n = 3
pIC50: −log10 of the molar value.

# Compound, Inequality sign, pIC50
data = [
    ("COc1cc([C@H](O)[C@H](CO)Oc2ccc(CCCO[C@@H]3O[C@H](CO)[C@@H](O)[C@H](O)[C@H]3O)cc2OC)ccc1O", "<", 4.00),
    ("COc1cc(C2Oc3c(OC)cc(CCCO)cc3C2CO)ccc1O (centres unmarked)", "=", 4.06),
    ("O=c1cc(-c2ccc(O)cc2)oc2c([C@@H]3O[C@H](CO)[C@@H](O)[C@H](O)[C@H]3O)c(O)cc(O)c12", "=", 4.03),
    ("COc1cc(CCCO)ccc1O[C@@H](CO)[C@H](O)c1cc(OC)c(O)c(OC)c1", "<", 4.00),
    ("COc1cc([C@@H]2OC(=O)[C@@H]3[C@H]2CO[C@H]3c2ccc(O)c(OC)c2)ccc1O", "<", 4.00),
    ("COc1cc([C@H]2OC[C@H]3[C@@H]2CO[C@@H]3c2cc(OC)c(O)c(OC)c2)ccc1O [Compound 30, (+)-medioresinol]", "=", 4.02),
    ("COc1ccc(C(=O)O)cc1O", "<", 4.00),
    ("COc1cc([C@@H](O)[C@H](CO)Oc2ccc([C@@H]3OC[C@@H]4[C@H]3CO[C@H]4c3ccc(O)c(OC)c3)cc2OC)ccc1O", "=", 4.02),
]

* * *

- System: LPS-stimulated NO release in RAW 264.7 cells
- Experiment summary: Nitrite (Griess) assay of LPS-stimulated NO release
- Format: cell-based
- Particulars: Mus musculus, RAW264.7, LPS (1 μg/mL)-stimulated RAW 264.7 cells; mean ± SD, n = 3; read-out: IC50 NO production anti-inflammatory effect
pIC50: −log10 of the molar value.
Test readout: pIC50

# Compound, Endpoint value
rows = [
    ("COc1cc([C@@H](O)[C@H](CO)Oc2c(OC)cc([C@@H]3OC[C@@H]4[C@H]3CO[C@H]4c3cc(OC)c(O)c(OC)c3)cc2OC)ccc1O [Compound 35]", 4.58),
    ("COc1cc(O)c2c(c1)C(=O)c1cc(C)cc(O)c1C2=O [Compound 45, physcion]", 4.52),
    ("COc1cc([C@H]2OC[C@H]3[C@@H]2CO[C@@H]3c2cc(OC)c(O)c(OC)c2)ccc1O [Compound 30, (+)-medioresinol]", 4.26),
    ("COc1cc([C@@H](O)[C@H](CO)Oc2ccc([C@@H]3OC[C@@H]4[C@H]3CO[C@H]4c3ccc(O)c(OC)c3)cc2OC)ccc1O [Compound 32]", 4.34),
    ("COc1cc([C@H](O)[C@H](CO)Oc2ccc(CCCO[C@@H]3O[C@H](CO)[C@@H](O)[C@H](O)[C@H]3O)cc2OC)ccc1O [Compound 23]", 4.14),
    ("COc1cc(C2Oc3c(OC)cc(CCCO)cc3C2CO)cc(OC)c1O (stereo not drawn) [Compound 14]", 4.16),
]
